Target: the molecule itself
Assay: native gel or EMSA; purified recombinant proteins, non-reducing, non-denaturing electrophoresis (SDS- and DTT-free loading buffer), immunoblot with anti-laforin or anti-HIS antibody; self-association, monomer and dimer bands

{"Protein": "laforin C169S, recombinant, no epitope tag (enzyme, human, UniProt O95278 1-331, looked up, laforin, human, 331 amino acids (EPM2A), mutant C169S; source: E. coli BL21 (RIL), pET21b+, purified (amylose resin)) MRFRFGVVVPPAVAGARPELLVVGSRPELGRWEPRGAVRLRPAGTAAGDGALALQEPGLWLGEVELAAEEAAQDGAEPGRVDTFWYKFLKREPGGELSWEGNGPHHDRCCTYNENNLVDGVYCLPIGHWIEATGHTNEMKHTTDFYFNIAGHQAMHYSRILPNIWLGSSPRQVEHVTIKLKHELGITAVMNFQTEWDIVQNSSGCNRYPEPMTPDTMIKLYREEGLAYIWMPTPDMSTEGRVQMLPQAVCLLHALLEKGHIVYVHCNAGVGRSTAAVCGWLQYVMGWNLRKVQYFLMAKRPAVYIDEEALARAQEDFFQKFGKVRSSVCSL", "binding result": "binds"}
{"Protein": "laforin C250S, recombinant, no epitope tag (enzyme, human, UniProt O95278 1-331, looked up, laforin, human, 331 amino acids (EPM2A), mutant C250S; source: E. coli BL21 (RIL), pET21b+, purified (amylose resin)) MRFRFGVVVPPAVAGARPELLVVGSRPELGRWEPRGAVRLRPAGTAAGDGALALQEPGLWLGEVELAAEEAAQDGAEPGRVDTFWYKFLKREPGGELSWEGNGPHHDRCCTYNENNLVDGVYCLPIGHWIEATGHTNEMKHTTDFYFNIAGHQAMHYSRILPNIWLGSCPRQVEHVTIKLKHELGITAVMNFQTEWDIVQNSSGCNRYPEPMTPDTMIKLYREEGLAYIWMPTPDMSTEGRVQMLPQAVSLLHALLEKGHIVYVHCNAGVGRSTAAVCGWLQYVMGWNLRKVQYFLMAKRPAVYIDEEALARAQEDFFQKFGKVRSSVCSL", "binding result": "binds"}
